Just for reference, ChEMBL document CHEMBL3991601 is where these values come from.

target: Mitogen-activated protein kinase 11 (Homo sapiens); further: in the data inactive means no Kd found up to 30 µM
Sequence (Q15759 whole entry): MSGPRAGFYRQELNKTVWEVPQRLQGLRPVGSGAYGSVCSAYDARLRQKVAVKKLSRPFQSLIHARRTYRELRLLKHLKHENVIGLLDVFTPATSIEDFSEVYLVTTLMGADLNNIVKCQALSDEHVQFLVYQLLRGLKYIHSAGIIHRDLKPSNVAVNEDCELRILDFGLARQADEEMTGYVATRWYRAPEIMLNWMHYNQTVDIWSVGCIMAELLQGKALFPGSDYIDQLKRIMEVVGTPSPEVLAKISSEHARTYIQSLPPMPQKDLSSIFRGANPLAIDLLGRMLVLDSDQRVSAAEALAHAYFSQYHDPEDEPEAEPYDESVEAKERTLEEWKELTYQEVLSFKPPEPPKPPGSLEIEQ
Activity calls are given as the source filed them.
# valid calls are 1.0 (active), 0.0 (inactive); nothing else

# example entries with known answers
Cn1cc(-c2ccc3nnc(C(F)(F)c4ccc5ncccc5c4)n3n2)cn1 :: 0.0
O=C(O)[C@]1(Cc2cccc(Nc3nccs3)n2)CC[C@@H](Oc2cccc(Cl)c2F)CC1 :: 0.0
O=C(Nc1cccc(Cl)c1)Nc1ncc(CCNc2ncnc3ccsc23)s1 :: 0.0
CNC(=O)c1cc(Oc2ccc(NC(=O)Nc3ccc(Cl)c(C(F)(F)F)c3)c(F)c2)ccn1 :: 1.0
COc1ccc(-c2ccc3c(N4CCOC[C@@H]4C)nc(N4CCOC[C@@H]4C)nc3n2)cc1CO :: 0.0

Data request: Look up the recorded call for "C1=C/COCc2cc(ccc2OCCN2CCCC2)Nc2nccc(n2)-c2cccc(c2)COC/1" in this test.
Data returned: 0.0

Data request: Look up the recorded call for "O=c1sn(-c2cccc3ccccc23)c(=O)n1Cc1ccccc1" in this test.
Data returned: 0.0

Data request: Look up the recorded call for "CNC(=O)CN1CCC(Oc2cc3c(Nc4cccc(Cl)c4F)ncnc3cc2OC)CC1" in this test.
Data returned: 0.0

Data request: Look up the recorded call for "COc1cc(CCc2cc(NC(=O)c3ccc(N4C[C@@H](C)N[C@@H](C)C4)cc3)n[nH]2)cc(OC)c1" in this test.
Data returned: 0.0

Data request: Look up the recorded call for "Cn1cc(-c2ccc(F)c(C(F)(F)F)c2)nc1C1CCN(c2ncnc3[nH]ncc23)CC1" in this test.
Data returned: 0.0

Data request: Look up the recorded call for "Cc1ccc(S(=O)(=O)Nc2nc3ccccc3nc2Nc2ccc3nsnc3c2)cc1" in this test.
Data returned: 0.0

Data request: Look up the recorded call for CN1N=C(N)c2cn([C@@H]3O[C@H](COP(=O)(O)O)[C@@H](O)[C@H]3O)c3ncnc1c23 [TRICIRIBINE PHOSPHATE] in this test.
Data returned: 0.0

Data request: Look up the recorded call for "CCn1c(=O)c(-c2cc[nH]n2)cc2c(C)nc(N)nc21" in this test.
Data returned: 0.0

Data request: Look up the recorded call for "CNC(=O)c1ccc(-c2cnc3ncc(Cc4ccc5ncccc5c4)n3n2)cc1F" in this test.
Data returned: 0.0

* * *

target: Tyrosine-protein kinase Fyn (Homo sapiens, UniProt P06241); further: in the data inactive means no Kd found up to 30 µM
Sequence (P06241 whole entry): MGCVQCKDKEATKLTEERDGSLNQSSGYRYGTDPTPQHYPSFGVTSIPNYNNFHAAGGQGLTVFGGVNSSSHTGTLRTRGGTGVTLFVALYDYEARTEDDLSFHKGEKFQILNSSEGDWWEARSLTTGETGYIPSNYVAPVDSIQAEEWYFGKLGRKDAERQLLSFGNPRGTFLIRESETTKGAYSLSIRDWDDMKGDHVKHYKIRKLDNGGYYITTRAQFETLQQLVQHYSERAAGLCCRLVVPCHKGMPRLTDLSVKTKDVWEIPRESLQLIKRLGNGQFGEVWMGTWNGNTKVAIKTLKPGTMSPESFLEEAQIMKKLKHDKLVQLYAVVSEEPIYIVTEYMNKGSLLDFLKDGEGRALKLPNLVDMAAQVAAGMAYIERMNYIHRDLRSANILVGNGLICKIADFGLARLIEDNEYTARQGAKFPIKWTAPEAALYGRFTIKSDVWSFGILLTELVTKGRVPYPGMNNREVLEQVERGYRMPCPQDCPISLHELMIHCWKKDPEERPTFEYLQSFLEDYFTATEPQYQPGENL
The source made the active and inactive calls.
# valid calls are active, inactive; nothing else

# example entries with known answers
CNS(=O)(=O)Nc1nccc(Cc2c(C)c3ccc(Oc4ncccn4)cc3oc2=O)c1F :: inactive
COc1cc(N2CCC(N3CCN(C)CC3)CC2)ccc1Nc1ncnc(Nc2ccccc2S(=O)(=O)C(C)C)n1 :: active
CCn1c(=O)c(-c2cc[nH]n2)cc2c(C)nc(N)nc21 :: inactive
CC(C)Nc1cc(-c2c[nH]c(C(=O)N[C@H](CO)c3cccc(Cl)c3)c2)c(Cl)cn1 :: inactive
Cc1ccc(S(=O)(=O)Nc2nc3ccccc3nc2Nc2ccc3nsnc3c2)cc1 :: inactive
CNC(=O)c1ccc(-c2cnc3ncc(Cc4ccc5ncccc5c4)n3n2)cc1F :: inactive

Turning to the following compound.
Data request: Look up the recorded call for "O=C(O)[C@]1(Cc2cccc(Nc3nccs3)n2)CC[C@@H](Oc2cccc(Cl)c2F)CC1" in this test.
Data returned: inactive
